Taken from the supplement of paper PMC11061612.

- System: MSTO-211H (Mesothelioma)
- protocol: combination Emax (second highest fraction inhibited in the dose matrix, 72 h); higher = more inhibition; extreme values may be limits of the assay
readout.label: combination Emax
One number for each entry.

molecule	experimental.system	readout.label	experimental.result
CN(CCO)CC[C@H](CSc1ccccc1)Nc1ccc(S(=O)(=O)NC(=O)c2ccc(N3CCC([C@@H](O)c4ccccc4-c4ccc(Cl)cc4)CC3)cc2)cc1S(=O)(=O)C(F)(F)F [AZD4320] + C[C@@H](Nc1cc(F)cc(F)c1)c1cc(C(=O)N(C)C)cc2c(=O)cc(N3CCOCC3)oc12 [AZD8186] (first compound max 1 µM, 7x7, partner max 3 µM)	MSTO-211H (Mesothelioma)	combination Emax	0.751

Incoming: Provide measured combination Emax value, entry: COc1nnc2ccc(N3CCC(c4ccc(OCCN5CCN(C)C(=O)[C@H]5C)cc4)CC3)nn12 [AZD5153] + C=CCn1c(=O)c2cnc(Nc3ccc(N4CCN(C)CC4)cc3)nc2n1-c1cccc(C(C)(C)O)n1 [AZD1775] (first compound max 1 µM, partner max 1 µM)
Outgoing: 0.255

====

- Tested on: BICR78 (Oral Cavity Carcinoma);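 further: after 72 h of two-drug dosing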
- protocol: Bliss excess, mean over the matrix (fraction); higher = more synergy
readout.label: Bliss excess
Give bare numbers.

molecule	experimental.system	Bliss excess
CC(=O)Nc1cccc(-n2c(=O)n(C3CC3)c(=O)c3c(Nc4ccc(I)cc4F)n(C)c(=O)c(C)c32)c1 [Trametinib] + Cc1nc(-c2cn3c(n2)-c2ccc(-c4cnn(C(C)(C)C(N)=O)c4)cc2OCC3)n(C(C)C)n1 [Taselisib] (first compound max 1 µM, 7x7, partner max 10 µM)	BICR78 (Oral Cavity Carcinoma)	0.0654

--- query ---
Incoming: Provide measured Bliss excess on BICR78 (Oral Cavity Carcinoma) for CN(CCO)CC[C@H](CSc1ccccc1)Nc1ccc(S(=O)(=O)NC(=O)c2ccc(N3CCC([C@@H](O)c4ccccc4-c4ccc(Cl)cc4)CC3)cc2)cc1S(=O)(=O)C(F)(F)F [AZD4320] + Nc1ccn([C@@H]2O[C@H](CO)[C@@H](O)C2(F)F)c(=O)n1 [Gemcitabine] (first compound max 1 µM, 7x7, partner max 0.3 µM) please.
Outgoing: -0.0581

====

- Test system: CAL-39 (Other Solid Carcinomas)
- protocol: combination Emax (second highest fraction inhibited in the dose matrix, 72 h); higher = more inhibition; extreme values may be limits of the assay
For each of the compounds below, state its combination Emax.

Solved cases (3 shown):
compound	combination Emax
Cc1c2c(nn1C)CSCc1cc(n(C)n1)CSc1cc(c3ccccc3c1)OCCCc1c(C(=O)O)n(C)c3c-2c(Cl)ccc13 [AZD5991] + CC1(C)CCC(CN2CCN(c3ccc(C(=O)NS(=O)(=O)c4ccc(NCC5CCOCC5)c([N+](=O)[O-])c4)c(Oc4cnc5[nH]ccc5c4)c3)CC2)=C(c2ccc(Cl)cc2)C1 [Venetoclax] (first compound max 1 µM, 7x7, partner max 1 µM)	0.292
C[C@@H](c1ccc2nccn2c1)n1nnc2ncc(-c3cnn(C)c3)nc21 [Savolitinib] + CC1(C)CCC(CN2CCN(c3ccc(C(=O)NS(=O)(=O)c4ccc(NCC5CCOCC5)c([N+](=O)[O-])c4)c(Oc4cnc5[nH]ccc5c4)c3)CC2)=C(c2ccc(Cl)cc2)C1 [Venetoclax] (first compound max 1 µM, 7x7, partner max 1 µM)	0.157
CN(C)CCCOc1ccc(-c2ccc3ncc4c(c3c2)n(C2CCOCC2)c(=O)n4C)cn1 [AZD0156] + C=CCn1c(=O)c2cnc(Nc3ccc(N4CCN(C)CC4)cc3)nc2n1-c1cccc(C(C)(C)O)n1 [AZD1775] (first compound max 1 µM, partner max 1 µM)	0.376

For each of the compounds below, state combination Emax.
1. CCN(CCO)CCCOc1ccc2c(Nc3cc(CC(=O)Nc4cccc(F)c4)[nH]n3)ncnc2c1 [AZD2811] + O=C(c1cc(Cc2n[nH]c(=O)c3ccccc23)ccc1F)N1CCN(C(=O)C2CC2)CC1 [Olaparib] (first compound max 1 µM, 7x7, partner max 10 µM)
2. CN(CCO)CC[C@H](CSc1ccccc1)Nc1ccc(S(=O)(=O)NC(=O)c2ccc(N3CCC([C@@H](O)c4ccccc4-c4ccc(Cl)cc4)CC3)cc2)cc1S(=O)(=O)C(F)(F)F [AZD4320] + CS(=O)(=O)CCNCc1ccc(-c2ccc3ncnc(Nc4ccc(OCc5cccc(F)c5)c(Cl)c4)c3c2)o1 [Lapatinib] (first compound max 1 µM, 7x7, partner max 10 µM)
3. C[C@@H]1COCCN1c1cc(C2([S@](C)(=N)=O)CC2)nc(-c2ccnc3[nH]ccc23)n1 [AZD6738] + Nc1ccn([C@@H]2O[C@H](CO)[C@@H](O)C2(F)F)c(=O)n1 [Gemcitabine] (first compound max 10 µM, 7x7, partner max 0.3 µM)
4. Cc1c2c(nn1C)CSCc1cc(n(C)n1)CSc1cc(c3ccccc3c1)OCCCc1c(C(=O)O)n(C)c3c-2c(Cl)ccc13 [AZD5991] + CN(C)CCCOc1ccc(-c2ccc3ncc4c(c3c2)n(C2CCOCC2)c(=O)n4C)cn1 [AZD0156] (first compound max 1 µM, 7x7, partner max 1 µM)

Outgoing:
[0.324, 0.97, 0.961, 0.515]
